# Measured Target: CDK8/Cyclin C (Homo sapiens)
# Sequence (P49336 whole entry): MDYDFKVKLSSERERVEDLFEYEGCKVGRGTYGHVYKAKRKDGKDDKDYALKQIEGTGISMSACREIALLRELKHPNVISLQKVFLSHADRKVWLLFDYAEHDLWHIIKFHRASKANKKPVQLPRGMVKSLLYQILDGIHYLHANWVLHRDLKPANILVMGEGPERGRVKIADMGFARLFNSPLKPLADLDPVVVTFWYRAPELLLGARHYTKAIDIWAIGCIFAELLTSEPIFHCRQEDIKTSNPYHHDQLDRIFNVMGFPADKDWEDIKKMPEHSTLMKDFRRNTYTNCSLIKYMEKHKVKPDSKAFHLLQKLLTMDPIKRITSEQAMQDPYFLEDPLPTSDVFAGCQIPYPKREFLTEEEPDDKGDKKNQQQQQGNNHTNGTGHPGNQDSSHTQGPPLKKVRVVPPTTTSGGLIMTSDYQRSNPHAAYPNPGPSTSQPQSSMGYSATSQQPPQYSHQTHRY
# Sequence (P24863 whole entry partner): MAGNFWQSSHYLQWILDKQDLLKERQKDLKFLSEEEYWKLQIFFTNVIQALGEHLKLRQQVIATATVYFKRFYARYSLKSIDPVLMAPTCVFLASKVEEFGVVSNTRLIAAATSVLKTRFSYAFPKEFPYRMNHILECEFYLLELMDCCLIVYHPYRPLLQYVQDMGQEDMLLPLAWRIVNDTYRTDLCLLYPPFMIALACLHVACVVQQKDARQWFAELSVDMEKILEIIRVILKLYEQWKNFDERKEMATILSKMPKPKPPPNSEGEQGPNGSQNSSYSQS
# Experiment Notes: CDK8/Cyclin C LANCE TR-FRET kinase assay
# Study Conditions: CDK8/Cyclin C 10 nM, ATP 24 μM, Ulight-GS peptide 80 nM, 37° C. 30 mins
// values below are reported IC50
Recorded Metric: IC50 (nM)

COc1ccc(F)c(-c2cncc(NC(C(N)=O)c3ccccc3)c2)c1 (centres unmarked): 264
NC(=O)[C@H](Nc1cncc(-c2ccc(O)c(Cl)c2)c1)c1ccccc1: 7.1
CCOc1ccc(F)c(-c2cncc(NC(C(N)=O)c3ccccc3)c2)c1 (centres unmarked): 1100
CS(=O)(=O)NC(=O)C(Nc1cncc(-c2cc(Cl)ccc2F)c1)c1ccccc1 (centres unmarked): 7740
NC(=O)C(Nc1cncc(-c2cc(Cl)ccc2F)c1)c1ccsc1 (centres unmarked): 54.2
NC(=O)C(Nc1cncc(-c2ccc(O)c(Cl)c2)n1)c1ccccc1 (centres unmarked): 4.8
COc1cc(-c2cncc(NC(C(N)=O)c3ccccc3)c2)c(F)cn1 (centres unmarked): 1150
NC(=O)C(Nc1cncc(-c2cc(Cl)ccc2F)c1)c1ccc(Cl)cc1 (centres unmarked): 1080
NC(=O)C(Nc1cncc(-c2cc(Cl)c(F)cc2F)c1)c1ccccc1 (centres unmarked): 721
COc1cc(-c2cncc(NC(C(N)=O)c3ccccc3)c2)ccn1 (centres unmarked): 2170
NC(=O)[C@H](Nc1cncc(-c2cc(Cl)ccc2F)c1)c1ccccc1: 91.7
NC(=O)C(Nc1cncc(-c2ccc(O)c(Cl)c2)c1)c1ccccc1 (centres unmarked): 105
COc1cccc(-c2cncc(NC(C(N)=O)c3ccccc3)n2)c1 (centres unmarked): 430
NC(=O)[C@H](Nc1cncc(-c2ccc(O)c(Cl)c2)n1)c1ccccc1: 2.8
